test system: Eimeria acervulina; assay: Antiparasitic activity against Eimeria acervulina in chicken at 12.5 ppm in feed assessed as percent reduction in oocyst; type: functional; set-up: scale not given: the % may be the effect or the level left
readout label: Activity

CCCNc1nccc(-c2c(-c3ccc(F)cc3)nc3cc(CN(C)C)ccn23)n1 : >=80%
CN1CCC(c2ccn3c(-c4ccnc(N)n4)c(-c4ccc(F)cc4)nc3c2)CC1 : 50%
CN(C)Cc1ccn2c(-c3ccnc(N)n3)c(-c3ccc(F)cc3)nc2c1 : >=80%
CN(C)Cc1ccn2c(-c3ccnc(NCC(C)(C)C)n3)c(-c3ccc(F)cc3)nc2c1 : >=80%
